The origin of these recorded values is patent US6221863A.

Each record here notes measured Ki.
# Measurement Target: serotonin transporter (Rattus norvegicus)
# Construct: frontal cortical membranes prepared from male Sprague-Dawley rats; from tissue; host or cells: frontal cortical membranes of male Sprague-Dawley rats
# Sequence (P31652 whole entry): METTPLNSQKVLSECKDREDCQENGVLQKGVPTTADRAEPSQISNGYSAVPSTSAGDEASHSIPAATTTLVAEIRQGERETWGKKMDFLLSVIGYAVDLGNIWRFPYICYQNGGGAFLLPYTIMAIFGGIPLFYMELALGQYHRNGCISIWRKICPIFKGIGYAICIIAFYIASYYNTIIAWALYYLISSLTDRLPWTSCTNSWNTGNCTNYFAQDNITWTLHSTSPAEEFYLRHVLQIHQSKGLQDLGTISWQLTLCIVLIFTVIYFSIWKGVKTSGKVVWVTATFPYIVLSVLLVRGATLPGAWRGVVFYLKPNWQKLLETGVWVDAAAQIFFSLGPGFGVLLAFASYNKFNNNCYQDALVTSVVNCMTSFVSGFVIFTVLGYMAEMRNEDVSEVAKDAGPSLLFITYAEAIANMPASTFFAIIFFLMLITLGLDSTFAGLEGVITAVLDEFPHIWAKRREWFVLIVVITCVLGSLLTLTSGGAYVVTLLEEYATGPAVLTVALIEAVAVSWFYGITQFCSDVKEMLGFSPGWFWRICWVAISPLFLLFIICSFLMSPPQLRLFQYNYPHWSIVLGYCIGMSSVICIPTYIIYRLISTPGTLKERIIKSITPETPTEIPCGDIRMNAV
# Experiment Description: serotonin transporter (ST) binding, 3H-paroxetine displacement in rat frontal cortical membranes
# Design: species or system rat (male Sprague-Dawley)
# Assay Conditions: 3H-paroxetine 0.1 nM, 60 min, 25° C., rat frontal cortical membranes; IC50 converted to Ki (Cheng-Prusoff); read-out: ST (Ki)
Give the quantity in nM, number only.

For C1=C(c2c[nH]c3ccccc23)CCN(CC2CNc3ccccc3O2)C1 (centres unmarked) , what is its reported Ki?
0.74

For COc1cccc2c1OC(CN1CC=C(c3c[nH]c4ccc(F)cc34)CC1)CN2c1ccc(C(F)(F)F)cc1 (centres unmarked) , what is its reported Ki?
505

* * *

Each record here notes measured Emax.
# Measurement Target: human 5-HT1A receptor (Homo sapiens, UniProt P08908)
# Construct: expressed in transfected cells
# Experiment Description: [35S]-GTPγS binding in 5-HT1A cloned receptor membrane fragments
# Type: biochemical
# Assay Conditions: [35S]GTPγS 1 nM, 30 min, 30° C.; excess 8-OH-DPAT defines maximum agonist response
Give the quantity in %, number only.

Consider the worked cases shown below.
COc1cccc2c1OC(CN1CC=C(c3c[nH]c4ccc(F)cc34)CC1)CN2 (stereo not drawn)
10
CCN1CC(CN2CC=C(c3c[nH]c4ccc(F)cc34)CC2)Oc2c(OC)cccc21 (stereo not drawn)
62
COc1cccc2c1OC(CN1CC=C(c3c[nH]c4ccc(F)cc34)CC1)CN2C (stereo not drawn)
97
C1=C(c2c[nH]c3ncccc23)CCN(CC2CN(c3ccccc3)c3ccccc3O2)C1 (stereo not drawn)
0
C1=C(c2c[nH]c3ccccc23)CCN(CC2CNc3ccccc3O2)C1 (stereo not drawn)
57

Next:
For CCCN1CC(CN2CC=C(c3c[nH]c4ccc(F)cc34)CC2)Oc2c(OC)cccc21 (stereo not drawn) , what is its reported Emax?
100

* * *

# Measurement Target: human 5-HT1A receptor (Homo sapiens, UniProt P08908)
# Sequence (P08908 1-422): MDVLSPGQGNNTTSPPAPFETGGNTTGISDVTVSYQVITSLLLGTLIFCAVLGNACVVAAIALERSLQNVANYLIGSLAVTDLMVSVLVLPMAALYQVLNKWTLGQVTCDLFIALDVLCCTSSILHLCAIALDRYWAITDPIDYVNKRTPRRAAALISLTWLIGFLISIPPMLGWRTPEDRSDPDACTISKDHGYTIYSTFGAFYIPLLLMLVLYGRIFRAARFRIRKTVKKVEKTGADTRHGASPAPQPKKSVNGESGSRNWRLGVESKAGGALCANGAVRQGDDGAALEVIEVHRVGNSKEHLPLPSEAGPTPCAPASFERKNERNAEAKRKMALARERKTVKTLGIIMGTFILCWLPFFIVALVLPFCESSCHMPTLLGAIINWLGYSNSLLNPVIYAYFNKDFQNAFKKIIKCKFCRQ
# Experiment Description: 5-HT1A receptor binding, [3H]8-OH-DPAT displacement in membranes of CHO cells expressing the human receptor
# Assay Conditions: [3H]8-OH-DPAT 1.5 nM, 30 min, room temperature, 5-HT1A.CHO membranes
Quantity: pKi
Answer as the number alone; pKi is minus log10 of concentration in mol/L.

Consider the worked cases shown below.
COc1cccc2c1OC(CN1CC=C(c3c[nH]c4ccc(F)cc34)CC1)CN2C (centres unmarked) [Example 2]
6.85
C1=C(c2c[nH]c3ccccc23)CCN(CC2CNc3ccccc3O2)C1 (centres unmarked) [Example 5]
6.09
COc1cccc2c1OC(CN1CC=C(c3c[nH]c4ccc(F)cc34)CC1)CN2 (centres unmarked) [Example 1]
6.81

For CCCN1CC(CN2CC=C(c3c[nH]c4ccc(F)cc34)CC2)Oc2c(OC)cccc21 (centres unmarked) [Example 4] , what is its reported pKi?
6.44

For CCN1CC(CN2CC=C(c3c[nH]c4ccc(F)cc34)CC2)Oc2c(OC)cccc21 (centres unmarked) [Example 3] , what is its reported pKi?
6.86
